KIDNEY_L reference
- Species: Rattus norvegicus
- test-description: Open TG-GATES - Regimen: Single
- Assay type: toxicity, organism-based, Sprague-Dawley
- Design: regimen Single, gender Male, age 6 weeks
- test-conditions: in vivo, po, 0 mg/kg, 24 h, tissue Kidney, route gavage, dose level Control
Response body: numeric value in g, unit text excluded.

The recorded KIDNEY_L for CC(=N)S [THIOACETAMIDE] is 0.9

The recorded KIDNEY_L for CC(C)C(=O)Nc1ccc([N+](=O)[O-])c(C(F)(F)F)c1 [FLUTAMIDE] is 0.9

The recorded KIDNEY_L for O=C(N[C@H](CO)[C@H](O)c1ccc([N+](=O)[O-])cc1)C(Cl)Cl is 1

The recorded KIDNEY_L for CC(=O)Oc1cc(C(C)C)c(OCCN(C)C)cc1C is 1

The recorded KIDNEY_L for CCN1CCCC1CNC(=O)c1cc(S(N)(=O)=O)ccc1OC (stereo not given) [SULPIRIDE] is 0.9

The recorded KIDNEY_L for CN1C(=O)OC(C)(C)C1=O is 1

The recorded KIDNEY_L for Oc1ncnc2[nH]ncc12 is 1

###

- Species: Rattus norvegicus
- test-description: Open TG-GATES - Regimen: Daily Repeat
- Type: toxicity, organism-based, Sprague-Dawley
- Parameters: regimen Daily Repeat, gender Male, age 6 weeks
- test-conditions: in vivo, po, 0 mg/kg, […], tissue Plasma, route gavage, dose level Control, time 14 day
property: TG

Below are worked cases with known answers.
compound: CC(=N)S [THIOACETAMIDE]
TG: 158.6 mg/dL

compound: CCC(C)(C)C(=O)O[C@H]1C[C@@H](C)C=C2C=C[C@H](C)[C@H](CC[C@@H]3C[C@@H](O)CC(=O)O3)[C@H]21
TG: 115.8 mg/dL

compound: CC(C)C(=O)Nc1ccc([N+](=O)[O-])c(C(F)(F)F)c1 [FLUTAMIDE]
TG: 100.4 mg/dL

compound: Oc1ncnc2[nH]ncc12
TG: 118 mg/dL

compound: C[C@](N)(Cc1ccc(O)c(O)c1)C(=O)O
TG: 140.8 mg/dL

The recorded TG for CC(C)(S)[C@@H](N)C(=O)O is 150.4 mg/dL

The recorded TG for CCSCC[C@H](N)C(=O)O is 125.2 mg/dL

###

Neu reference
- Organism: Rattus norvegicus
- test-description: Open TG-GATES - Regimen: Daily Repeat
- Format: toxicity, organism-based, Sprague-Dawley
- Parameters: regimen Daily Repeat, gender Male, age 6 weeks
- test-conditions: in vivo, po, 100 mg/kg, […], tissue Blood, route gavage, dose level Low, time 14 day
Response body: numeric value in %, unit text excluded.

molecule: CCN1CCCC1CNC(=O)c1cc(S(N)(=O)=O)ccc1OC (centres undefined) [SULPIRIDE]
Neu, %: 20
--
molecule: O=C(N[C@H](CO)[C@H](O)c1ccc([N+](=O)[O-])cc1)C(Cl)Cl
Neu, %: 18
--
molecule: O=C(O)c1cccnc1
Neu, %: 20

The recorded Neu for CC(C)(S)[C@@H](N)C(=O)O is 14

###

- Organism: Rattus norvegicus
- test-description: Open TG-GATES - Regimen: Daily Repeat
- Format: toxicity, organism-based, Sprague-Dawley
- Set-up: regimen Daily Repeat, gender Male, age 6 weeks
- test-conditions: in vivo, po, 0 mg/kg, […], tissue Plasma, route gavage, dose level Control, time 28 day
property: Na (meq/L)
Response body: numeric value in meq/L, unit text excluded.

smiles-record: O=C(O)c1cccnc1
quantity-unit: meq/L
Na: 142.8
--
smiles-record: Nc1nc(N)c2nc(-c3ccccc3)c(N)nc2n1
quantity-unit: meq/L
Na: 143.4
--
smiles-record: C#C[C@]1(O)CC[C@H]2[C@@H]3CCc4cc(O)ccc4[C@H]3CC[C@@]21C
quantity-unit: meq/L
Na: 143.2
--
smiles-record: Oc1ncnc2[nH]ncc12
quantity-unit: meq/L
Na: 138.8
--
smiles-record: CCC(C)(C)C(=O)O[C@H]1C[C@@H](C)C=C2C=C[C@H](C)[C@H](CC[C@@H]3C[C@@H](O)CC(=O)O3)[C@H]21
quantity-unit: meq/L
Na: 142.6

Pending molecule:
The recorded Na for CCSCC[C@H](N)C(=O)O is 141.2
